This collection of values is drawn from patent US20260209345A1.

Examples of binders with documented pKd follow.
- Assay Target: T1, recombinant LILRA1 ECD (human, UniProt O75019 17-461)
- T1 construct: whole canonical entry named; also called LILA1
- T1 sequence (O75019 17-461 limits assumed): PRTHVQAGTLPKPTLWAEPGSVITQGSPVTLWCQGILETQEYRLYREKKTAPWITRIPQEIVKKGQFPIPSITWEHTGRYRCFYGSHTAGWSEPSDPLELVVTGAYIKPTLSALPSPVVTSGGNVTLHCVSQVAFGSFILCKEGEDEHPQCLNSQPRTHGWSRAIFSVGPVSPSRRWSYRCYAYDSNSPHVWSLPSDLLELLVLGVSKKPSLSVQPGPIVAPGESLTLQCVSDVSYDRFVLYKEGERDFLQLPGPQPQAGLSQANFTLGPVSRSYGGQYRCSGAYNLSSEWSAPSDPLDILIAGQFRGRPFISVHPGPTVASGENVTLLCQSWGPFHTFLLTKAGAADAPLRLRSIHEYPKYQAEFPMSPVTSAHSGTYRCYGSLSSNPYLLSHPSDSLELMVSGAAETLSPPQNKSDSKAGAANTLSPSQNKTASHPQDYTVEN
- Test Details: BLI, IgG on AHC sensor, ECD in solution
The value called pKd is obtained by taking minus log10 of the concentration in mol/L.

# Binder, Test Value
measured = [
    ("A-033 (antibody, V domains shown, tested as IgG) VH: QVQLVQSGAEVKKPGSSVKVSCKASGYTFSSHAMSWVRQAPGQGLEWMGGIIPTFKTAVFAQKFQGRVTITADESTSTAYMELSSLRSEDTAVYYCAKGPPVGSSSWYTDWYFDLWGRGTLVTVSS VL: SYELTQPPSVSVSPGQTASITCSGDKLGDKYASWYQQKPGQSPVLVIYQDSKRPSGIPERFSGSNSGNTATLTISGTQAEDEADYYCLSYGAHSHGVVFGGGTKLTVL", 7.64),
    ("A-023 (antibody, V domains shown, tested as IgG) VH: QVQLVQSGAEVKKPGSSVKVSCKASGYTFQQYAMSWVRQAPGQGLEWIGGIIPQFSTSVYAQKFQGRVTITADESTSTAYMELSSLRSEDTAVYYCAKGPPVGSSSWYTDWYFDLWGRGTLVTVSS VL: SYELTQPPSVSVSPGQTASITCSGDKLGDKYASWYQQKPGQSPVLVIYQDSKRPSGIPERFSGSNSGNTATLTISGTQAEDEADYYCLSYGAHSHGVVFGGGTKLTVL", 7.08),
    ("A-048 (antibody, V domains shown, tested as IgG) VH: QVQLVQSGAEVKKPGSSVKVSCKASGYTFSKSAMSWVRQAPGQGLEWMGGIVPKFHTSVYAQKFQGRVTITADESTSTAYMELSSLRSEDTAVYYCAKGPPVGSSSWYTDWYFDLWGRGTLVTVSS VL: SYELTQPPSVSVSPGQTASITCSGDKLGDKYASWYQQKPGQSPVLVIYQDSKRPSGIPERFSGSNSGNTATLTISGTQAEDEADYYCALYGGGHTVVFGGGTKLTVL", 5.97),
    ("A-029 (antibody, V domains shown, tested as IgG) VH: QVQLVQSGAEVKKPGSSVKVSCKASGYTFSIYAMSWVRQAPGQGLEWMGGIIPSFRTAVYAQKFQGRVTITADESTSTAYMELSSLRSEDTAVYYCAKGPPVGSSSWYTDWYFDLWGRGTLVTVSS VL: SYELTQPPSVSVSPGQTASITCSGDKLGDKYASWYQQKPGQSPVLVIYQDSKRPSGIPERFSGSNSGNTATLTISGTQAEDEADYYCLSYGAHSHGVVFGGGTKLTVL", 7.53),
]

# ---- query binder ----
Any idea what its pKd is? The binder is A-018 (antibody, V domains shown, tested as IgG) VH: QVQLVQSGAEVKKPGSSVKVSCKASGGTFSTSAISWVRQAPGQGLEWMGGIIPIFYTANYAQKFQGRVTITADESTSTAYMELSSLRSEDTAVYYCAKDLGTYSSGWPYYYGMDVWGQGTTVTVSS VL: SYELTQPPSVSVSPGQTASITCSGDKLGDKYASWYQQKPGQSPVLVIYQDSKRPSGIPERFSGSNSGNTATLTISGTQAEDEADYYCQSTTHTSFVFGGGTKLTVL 6.09
